- System: NF-κB pathway (STING-dependent)
- assaySummary: NF-κB-inducible SEAP reporter in THP1-Dual reporter cell model
- Type: cell-based, human
- testSettings: 24 h exposure, normalized to cell viability; oxaliplatin in combinations 5 μM
measuredAttribute: EC50 (µM)
Give the quantity in µM, number only.

>  <compoundStructureString>
O=C(Nc1cc(F)c(F)cc1C(=O)[O-])c1ccc(-n2ccnc2)nn1.[Li+]

>  <measuredAttribute>
EC50

>  <measurement>
5.8

$$$$
>  <compoundStructureString>
COc1cc2cc(C(=O)CCC(=O)O)sc2cc1OC

>  <measuredAttribute>
EC50

>  <measurement>
17.7

$$$$
>  <compoundStructureString>
COCCOCCOCCOCCNC(=O)[O][Pt-2]12([O]C(=O)CCC(=O)c3cc4cc(OC)c(OC)cc4s3)([NH2+][C@@H]3CCCC[C@H]3[NH2+]1)[O]C(=O)C(=O)[O]2

>  <measuredAttribute>
EC50

>  <measurement>
55.4

$$$$

EC50 reading for COCCOCCOCCOCCC(=O)[O][Pt-2]12([O]C(=O)c3cc(F)c(F)cc3NC(=O)c3ccc(-n4ccnc4)nn3)([NH2+][C@@H]3CCCC[C@H]3[NH2+]1)[O]C(=O)C(=O)[O]2 : 35.1

----------
- assaySummary: Reduction kinetics with 10 eq. L-ascorbic acid in phosphate buffer, UHPLC
- Format: physicochemical
- testSettings: 10 eq. AA, PB pH 7.4, 20 °C, after 5 h

>  <compoundStructureString>
CC(=O)Nc1cc(F)c(F)cc1C(=O)[O][Pt-2]12([O]C(C)=O)([NH2+][C@@H]3CCCC[C@H]3[NH2+]1)[O]C(=O)C(=O)[O]2

>  <original compound left in presence of AA>
40%

$$$$
>  <compoundStructureString>
CC(=O)[O][Pt-2]12([O]C(=O)c3ccc(F)c(F)c3)([NH2+][C@@H]3CCCC[C@H]3[NH2+]1)[O]C(=O)C(=O)[O]2

>  <original compound left in presence of AA>
approximately 95%

$$$$
>  <compoundStructureString>
CC(=O)[O][Pt-2]12([O]C(=O)c3ccccc3)([NH2+][C@@H]3CCCC[C@H]3[NH2+]1)[O]C(=O)C(=O)[O]2

>  <original compound left in presence of AA>
approximately 95%

$$$$

----------
- System: HCT116 cells
- assaySummary: MTT-based cell viability assay, 72 h
- Parameters: species or system human
- testSettings: without AA
measuredAttribute: pIC50
Worth noting: pIC50 values are minus log10 of concentrations stated in mol/L.

pIC50 reading for O=C1[O][Pt]2([NH][C@@H]3CCCC[C@H]3[NH]2)[O]C1=O [oxaliplatin, reference compound] : 6.10
